assay.target: PI3Kδ (p110δ/p85α) Recombinant Human Protein (Homo sapiens (Human), UniProt O00329)
Sequence (O00329 whole entry): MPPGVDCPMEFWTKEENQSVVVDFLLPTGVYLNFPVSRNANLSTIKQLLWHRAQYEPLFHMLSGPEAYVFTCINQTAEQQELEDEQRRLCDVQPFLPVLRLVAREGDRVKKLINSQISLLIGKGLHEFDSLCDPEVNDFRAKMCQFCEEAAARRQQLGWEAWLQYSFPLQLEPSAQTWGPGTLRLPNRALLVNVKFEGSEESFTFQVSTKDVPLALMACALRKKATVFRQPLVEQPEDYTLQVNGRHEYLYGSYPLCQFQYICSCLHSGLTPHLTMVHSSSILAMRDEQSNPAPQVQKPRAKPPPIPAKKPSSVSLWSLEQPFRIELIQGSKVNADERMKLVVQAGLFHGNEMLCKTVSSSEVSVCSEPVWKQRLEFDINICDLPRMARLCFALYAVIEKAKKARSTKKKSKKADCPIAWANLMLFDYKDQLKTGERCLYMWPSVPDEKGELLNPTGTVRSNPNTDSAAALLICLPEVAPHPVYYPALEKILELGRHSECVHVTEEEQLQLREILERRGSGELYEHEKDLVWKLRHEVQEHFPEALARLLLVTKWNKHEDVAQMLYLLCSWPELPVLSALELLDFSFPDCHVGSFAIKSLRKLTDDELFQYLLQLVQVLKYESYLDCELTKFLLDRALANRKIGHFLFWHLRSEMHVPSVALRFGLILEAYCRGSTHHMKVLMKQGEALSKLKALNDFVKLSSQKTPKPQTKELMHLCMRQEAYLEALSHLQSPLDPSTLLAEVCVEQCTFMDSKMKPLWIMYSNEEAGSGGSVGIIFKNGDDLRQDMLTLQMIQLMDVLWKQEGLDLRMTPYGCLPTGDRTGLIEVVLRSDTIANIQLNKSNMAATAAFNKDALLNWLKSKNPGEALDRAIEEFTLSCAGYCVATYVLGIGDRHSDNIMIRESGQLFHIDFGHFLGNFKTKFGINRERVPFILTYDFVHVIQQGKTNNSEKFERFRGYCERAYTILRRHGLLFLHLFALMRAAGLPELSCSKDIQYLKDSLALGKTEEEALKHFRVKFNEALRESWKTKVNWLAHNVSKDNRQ
Sequence (P27986 whole entry partner): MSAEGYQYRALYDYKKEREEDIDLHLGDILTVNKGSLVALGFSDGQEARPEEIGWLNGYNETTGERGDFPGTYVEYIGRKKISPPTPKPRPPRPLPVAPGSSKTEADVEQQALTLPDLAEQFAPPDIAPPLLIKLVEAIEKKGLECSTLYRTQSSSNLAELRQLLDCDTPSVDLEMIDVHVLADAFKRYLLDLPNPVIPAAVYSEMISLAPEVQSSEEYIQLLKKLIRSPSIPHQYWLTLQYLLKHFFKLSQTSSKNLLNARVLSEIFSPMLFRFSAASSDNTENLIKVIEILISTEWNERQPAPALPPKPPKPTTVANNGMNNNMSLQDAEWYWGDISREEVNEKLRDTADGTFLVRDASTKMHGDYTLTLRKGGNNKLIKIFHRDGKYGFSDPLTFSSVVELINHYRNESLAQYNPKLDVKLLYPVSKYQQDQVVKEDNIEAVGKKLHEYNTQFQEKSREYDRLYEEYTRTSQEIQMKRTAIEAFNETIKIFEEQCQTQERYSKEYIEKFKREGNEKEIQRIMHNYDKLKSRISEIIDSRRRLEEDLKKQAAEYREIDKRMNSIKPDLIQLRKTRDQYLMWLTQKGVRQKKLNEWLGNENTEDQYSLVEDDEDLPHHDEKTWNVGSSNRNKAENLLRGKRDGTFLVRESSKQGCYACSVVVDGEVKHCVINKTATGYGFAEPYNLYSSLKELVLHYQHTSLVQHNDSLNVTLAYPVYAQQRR
protocol.text: PI3Kδ Scintillation Proximity Assay
Counter-ions that a name gives are not always drawn.
readout.name: IC50

Example compounds with recorded IC50:
Cc1ccc(S(=O)(=O)NC23CCC(C(F)F)(CC2)OC3)cc1-c1cnc2c(N)ncnn12 [Example 436, trifluoroacetate salt] = 100 to 500 nM
Cc1ccc(S(=O)(=O)NC23CC(F)(C2)C3)cc1-c1cnc2c(N)nc(C(F)(F)F)nn12 [Example 333, trifluoroacetate salt] = 100 to 500 nM
Cc1ccc(S(=O)(=O)N2CCN(C3CC3)C(=O)C2)cc1-c1cnc2c(N)ncnn12 = 500 to 2000 nM
Cc1ccc(S(=O)(=O)N[C@H]2C[C@H](O)C2)cc1-c1cnc2c(N)nccn12 = 100 to 500 nM
Cc1ccc(S(=O)(=O)NC23CCC(CC2)CC3)cc1-c1cnc2c(N)ncnn12 [Example 181, trifluoroacetate salt] = < 100 nM
Cc1ccc(S(=O)(=O)NC23CCC(CC2)C3)cc1-c1cnc2c(N)ncnn12 [Example 180, trifluoroacetate salt] = 100 to 500 nM
Nc1ncnn2c(-c3cccc(S(=O)(=O)NC45CCC(CO)(C4)C5)c3)cnc12 [Example 368, trifluoroacetate salt] = 100 to 500 nM
Cc1ccc(S(=O)(=O)NC2COC2)cc1-c1cnc2c(N)ncnn12 = 500 to 2000 nM
Cc1ccc(S(=O)(=O)NC23CC(C(=O)O)(C2)C3)cc1-c1cnc2c(N)nc(C(F)(F)F)cn12 [Example 290, trifluoroacetate salt] = 500 to 2000 nM
Cc1ccc(S(=O)(=O)NC2CC(CO)(CO)C2)cc1-c1cnc2c(N)ncnn12 = 500 to 2000 nM

## Input Param item = Cc1ccc(S(=O)(=O)NC2CCC(F)(F)CC2)cc1-c1cnc2c(N)ncnn12 ; retrieve measured IC50.
## Output 500 to 2000 nM

## Input Again, but for O=C(O)C(F)(F)F.[2H]C([2H])([2H])c1ccc(S(=O)(=O)NC23CCC(CO)(C2)C3)cc1-c1cnc2c(N)nc(C)cn12
## Output < 100 nM

## Input Again, but for Cc1ccc(S(=O)(=O)NC23CCC(CO)(CC2)CC3)cc1-c1cnc2c(N)ncnn12
## Output 100 to 500 nM

## Input Again, but for Cc1ccc(S(=O)(=O)NC23CCC(C#N)(C2)C3)cc1-c1cnc2c(N)nc(C(F)(F)F)cn12 [Example 281, trifluoroacetate salt]
## Output 100 to 500 nM

* * *

assay.target: PI3Kδ (p110δ/p85α) Recombinant Human Protein (Homo sapiens (Human), UniProt O00329)
protocol.text: PI3Kδ Scintillation Proximity Assay
Format: biochemical
pIC50: −log10 of the molar value. Counter-ions that a name gives are not always drawn.
Measured pIC50 values are reported for all entries that follow.

Cc1ccc(S(=O)(=O)N[C@H]2C[C@H](CO)C2)cc1-c1cnc2c(N)ncnn12 [Example 60] = 6.30 to 7.00
Cc1ccc(S(=O)(=O)N[C@H]2CC[C@H](CC#N)OC2)cc1-c1cnc2c(N)nc(C(=O)NC3CC(F)(F)C3)cn12 [Example 451, trifluoroacetate salt] = 6.30 to 7.00
Cc1ccc(S(=O)(=O)N(CCC#N)C2CCCC2)cc1-c1cnc2c(N)ncnn12 [Example 165] = 6.30 to 7.00

Could you now look at the following molecule, please?
## Input Report pIC50 for Cc1ccc(S(=O)(=O)N2[C@@H]3CC[C@H]2CN(C)C3)cc1-c1cnc2c(N)ncnn12 [Example 170] tested on PI3Kδ (p110δ/p85α) Recombinant Human Protein (Homo sapiens (Human), UniProt O00329).
## Output 5.70 to 6.30

* * *

assay.target: PI3Kδ (p110δ/p85α) Recombinant Human Protein (Homo sapiens (Human))
protocol.text: PI3Kδ Scintillation Proximity Assay
Description: Example C. PI3Kδ Scintillation Proximity Assay [γ-^33P]ATP (10 mCi/mL) and Wheat Germ Agglutinin (WGA) YSi SPA Scintillation Beads was purchased from Perkin-Elmer (Waltham, Mass.). Lipid kinase substrate, D-myo-Phosphatidylinositol 4,5-bisphosphate (PtdIns(4,5)P2)D (+)-sn-1,2-di-O-octanoylglyceryl, 3-O-phospho linked (PIP2), CAS 204858-53-7, was purchased from Echelon Biosciences (Salt Lake City, Utah). PI3Kδ (p110δ/p85α) Recombinant Human Protein was purchased from Eurofins (St Charles, Mo.). […]
pIC50: −log10 of the molar value. Structures can show the parent of a compound that is named as a salt.
Measured pIC50 values are reported for all entries that follow.

Example compounds with recorded pIC50:
Cc1ccc(S(=O)(=O)N2CC(CO)C2)cc1-c1cnc2c(N)ncnn12 = 6.30 to 7.00
N#CC12CCC(NS(=O)(=O)c3cc(-c4cnc5c(N)nc(C(F)(F)F)nn45)ccc3Cl)(C1)C2 = > 7.00
Nc1nccn2c(-c3ccc(F)c(S(=O)(=O)N[C@H]4CC[C@H](O)CC4)c3)cnc12 = 5.70 to 6.30
Cc1ccc(S(=O)(=O)N2C[C@@H](C)C[C@@H](N)C2)cc1-c1cnc2c(N)nc(C(F)(F)F)cn12 = > 7.00
Cc1ccc(S(=O)(=O)N[C@H]2CC[C@H](O)CC2)cc1-c1cnc2c(N)nc(C(F)(F)F)cn12 = 6.30 to 7.00

## Input Param item = Cc1ccc(S(=O)(=O)N2CCCC(NC(=O)C3CC3)C2)cc1-c1cnc2c(N)nc(C(F)(F)F)cn12 (stereo not drawn) [Example 517, trifluoroacetate] ; retrieve measured pIC50.
## Output 5.70 to 6.30

## Input Again, but for [2H]C([2H])([2H])c1ccc(S(=O)(=O)NC23CC(CC#N)(C2)C3)cc1-c1cnc2c(N)ncnn12 [Example 371, trifluoroacetate salt]
## Output 6.30 to 7.00

## Input Again, but for Cc1ccc(S(=O)(=O)NC23CC(C2)C3)cc1-c1cnc2c(N)ncnn12 [Example 106, trifluoroacetate salt]
## Output 5.70 to 6.30

* * *

assay.target: PI3Kγ (p110γ) Recombinant Human Protein (Homo sapiens (Human), UniProt P48736)
Sequence (P48736 whole entry): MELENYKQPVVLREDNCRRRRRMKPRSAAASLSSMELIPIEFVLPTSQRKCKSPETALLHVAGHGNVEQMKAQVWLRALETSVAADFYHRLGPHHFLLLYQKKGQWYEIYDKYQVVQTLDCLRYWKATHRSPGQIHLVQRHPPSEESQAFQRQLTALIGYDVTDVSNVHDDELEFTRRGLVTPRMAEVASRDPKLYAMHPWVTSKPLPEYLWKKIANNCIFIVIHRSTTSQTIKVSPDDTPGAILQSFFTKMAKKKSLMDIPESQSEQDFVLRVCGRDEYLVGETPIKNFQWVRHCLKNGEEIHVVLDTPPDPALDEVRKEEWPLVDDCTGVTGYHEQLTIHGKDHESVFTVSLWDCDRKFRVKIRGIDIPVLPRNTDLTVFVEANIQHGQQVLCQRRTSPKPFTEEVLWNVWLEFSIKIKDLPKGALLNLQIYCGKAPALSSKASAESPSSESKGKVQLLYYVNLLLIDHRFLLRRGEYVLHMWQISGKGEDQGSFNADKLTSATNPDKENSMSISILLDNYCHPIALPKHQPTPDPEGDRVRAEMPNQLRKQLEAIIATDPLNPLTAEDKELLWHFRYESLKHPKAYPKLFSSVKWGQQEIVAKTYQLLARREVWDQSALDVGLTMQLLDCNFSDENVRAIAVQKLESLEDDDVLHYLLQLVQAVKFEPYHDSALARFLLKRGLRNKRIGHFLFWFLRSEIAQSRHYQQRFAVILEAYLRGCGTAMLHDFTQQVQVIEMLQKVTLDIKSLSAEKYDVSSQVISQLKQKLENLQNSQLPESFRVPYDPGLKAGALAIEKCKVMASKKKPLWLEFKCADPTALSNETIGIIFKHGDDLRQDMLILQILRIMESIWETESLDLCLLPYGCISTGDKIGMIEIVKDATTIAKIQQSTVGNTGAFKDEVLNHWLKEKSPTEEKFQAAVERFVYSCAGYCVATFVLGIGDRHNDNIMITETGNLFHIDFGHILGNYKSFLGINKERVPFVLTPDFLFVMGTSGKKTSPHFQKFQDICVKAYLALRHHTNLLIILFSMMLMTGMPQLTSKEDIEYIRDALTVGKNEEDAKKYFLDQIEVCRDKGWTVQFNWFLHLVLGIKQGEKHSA
protocol.text: PI3K-γ Scintillation Proximity Assay
Type: biochemical
measurement.setup: read-out: PI3Kγ IC50
Counter-ions that a name gives are not always drawn.
Measured IC50 values are reported for all entries that follow.

Example molecules with recorded IC50:
Cc1cn2c(-c3cc(S(=O)(=O)N[C@H]4CC[C@H](O)CC4)ccc3C)cnc2c(N)n1 = < 0.1 µM
Cc1ccc(S(=O)(=O)N2CCOCC2(C)C)cc1-c1cnc2c(N)ncnn12 = < 0.1 µM
Cc1ccc(S(=O)(=O)NC23CCC(CN4CCOCC4)(CC2)OC3)cc1-c1cnc2c(N)ncnn12 [Example 434, trifluoroacetate salt] = < 0.1 µM

## Input Param item = Cc1ccc(S(=O)(=O)NC(CN)C2CC2)cc1-c1cnc2c(N)ncnn12 (stereo not shown) ; retrieve measured IC50.
## Output 0.1 to 0.5 µM

## Input Again, but for Cc1ccc(S(=O)(=O)NC23CC(CO)(C2)C3)cc1-c1cnc2c(N)nc(C(F)(F)F)nn12
## Output < 0.1 µM

## Input Again, but for C[C@]1(O)CC[C@H](NS(=O)(=O)c2cc(-c3cnc4c(N)nccn34)ccc2F)CC1
## Output < 0.1 µM

## Input Again, but for COc1nccc(-c2cn3c(-c4cc(S(C)(=O)=O)ccc4C)cnc3c(N)n2)c1F [Example 483, trifluoroacetate]
## Output < 0.1 µM

* * *

assay.target: PI3Kδ (p110δ/p85α) Recombinant Human Protein (Homo sapiens (Human), UniProt O00329)
protocol.text: PI3Kδ Scintillation Proximity Assay
Text: Example C. PI3Kδ Scintillation Proximity Assay [γ-^33P]ATP (10 mCi/mL) and Wheat Germ Agglutinin (WGA) YSi SPA Scintillation Beads was purchased from Perkin-Elmer (Waltham, Mass.). Lipid kinase substrate, D-myo-Phosphatidylinositol 4,5-bisphosphate (PtdIns(4,5)P2)D (+)-sn-1,2-di-O-octanoylglyceryl, 3-O-phospho linked (PIP2), CAS 204858-53-7, was purchased from Echelon Biosciences (Salt Lake City, Utah). PI3Kδ (p110δ/p85α) Recombinant Human Protein was purchased from Eurofins (St Charles, Mo.). […]
pIC50: −log10 of the molar value. Structures can show the parent of a compound that is named as a salt.
Measured pIC50 values are reported for all entries that follow.

Example compounds with recorded pIC50:
Cc1nc(N)c2ncc(-c3cc(S(=O)(=O)N[C@H]4C[C@H](C#N)C4)ccc3C)n2n1 [Example 272, trifluoroacetate salt] = 6.30 to 7.00
CCS(=O)(=O)Nc1cc(-c2cnc3c(N)nccn23)cnc1F [Example 14, bis(trifluoroacetate)] = > 7.00
Cc1ccc(S(=O)(=O)CC2CCOCC2)cc1-c1cnc2c(N)ncnn12 [Example 492, trifluoroacetate] = 5.70 to 6.30

Could you now look at the following compound, please?
## Input Param item = Cc1ccc(S(=O)(=O)N(C)CC2(CO)CC2)cc1-c1cnc2c(N)ncnn12 [Example 160] ; retrieve measured pIC50.
## Output 5.70 to 6.30
